Tested on: bedstraw
assay: Test B pre/postemergence bedstraw
Format: in vivo, Galium aparine
condition-details: Preemergence, Rate 250 g/ha; scale of 0 to 10 where 0 is no effect and 10 is complete control
Overview of recorded Plant response rating, Bedstraw for various compounds

> print(dat)
                                smiles.code  result
1  CCc1noc(CC)c1-n1c(=O)on(C(=O)N(c2ccc(F)cc2)C(C)C)c1=O       0
2  CC(C)N(C(=O)n1oc(=O)n(C2CCCCC2)c1=O)c1ccc(Cl)cc1       0
3  CCN(CC)C(=O)n1oc(=O)n(-c2ccc(OC)cc2)c1=O       0
4  C=CCn1c(=O)on(C(=O)N(c2ccccc2)C(C)C)c1=O       0
5  COc1ccc(-n2c(=O)on(C(=O)N(C3=CCOCC3)C(C)C)c2=O)cc1       0
6  CCN(C(=O)n1oc(=O)n(-c2ccc(C)cc2C)c1=O)C1CCCCC1       0

Value lookup for Plant response rating, Bedstraw; key = `CC(C)N(C(=O)n1oc(=O)n(-c2cc(Cl)cc(Cl)c2)c1=O)C1=CCOCC1`
0

Value lookup for Plant response rating, Bedstraw; key = `COc1ccc(-n2c(=O)on(C(=O)N(c3ccc(F)cc3)C(C)C)c2=O)c(C)c1`
0

====

Tested on: soybean
assay: Test B pre/postemergence soybean
Format: in vivo, Glycine max
condition-details: Postemergence, Rate 62 g/ha; scale 0 to 10, 0 is no effect, 10 is complete control
readout-label: Plant response rating, Soybean

Consider the reported Plant response rating, Soybean for these molecules:
> print(dat)
                                   molecule                   readout.label  result
1  CC(C)N(C(=O)n1oc(=O)n(CC2=NOCCC2)c1=O)c1ccc(F)cc1  Plant response rating, Soybean       4
2  C#CC(C)n1c(=O)on(C(=O)N(c2ccc(F)cc2)C(C)C)c1=O (centres unmarked)  Plant response rating, Soybean       2
3  CCC(C)n1c(=O)on(C(=O)N(c2ccc(F)cc2)C(C)C)c1=O (centres unmarked)  Plant response rating, Soybean       4

Value lookup for Plant response rating, Soybean; key = CC(C)N(C(=O)n1oc(=O)n(CC(C)[N+](=O)[O-])c1=O)c1ccccc1 (centres unmarked)
0

Value lookup for Plant response rating, Soybean; key = `CC(C)N(C(=O)n1oc(=O)n(C(CCl)CCl)c1=O)c1ccc(F)cc1`
2

====

Overview of recorded Corn plant response rating for various molecules
Tested on: corn
assay: Test B pre/postemergence corn
Assay type: in vivo, Zea mays
condition-details: Preemergence, Rate 500 g/ha; scale of 0 to 10 where 0 is no effect and 10 is complete control
Please reply with the value in numeric form only.

Consider the reported Corn plant response rating for these molecules:
> print(dat)
                                   molecule  experimental.target               readout.label  number
1  CC(C)=CCn1c(=O)on(C(=O)N(c2ccc(Cl)cc2)C(C)C)c1=O [Compound 545]                 corn  Corn plant response rating       0
2  CCOC(=O)C=C(Cn1c(=O)on(C(=O)N(c2ccc(F)cc2F)C(C)C)c1=O)OCC [Compound 519]                 corn  Corn plant response rating       0

Value lookup for Corn plant response rating; key = CC(C)N(C(=O)n1oc(=O)n(CCc2ccccc2)c1=O)c1ccc(F)cc1F [Compound 508]
4

Value lookup for Corn plant response rating; key = Cc1c(-n2c(=O)on(C(=O)N(c3ccc(F)cc3F)C(C)C)c2=O)ccc2ccccc12 [Compound 337]
0

Value lookup for Corn plant response rating; key = C=CCCCn1c(=O)on(C(=O)N(c2ccc(F)cc2F)C(C)C)c1=O [Compound 516]
0

====

Tested on: sugar beet
assay: Test B pre/postemergence sugar beet
Type: in vivo, Beta vulgaris
condition-details: Preemergence, Rate 125 g/ha; scale 0 to 10, 0 is no effect, 10 is complete control
Overview of recorded Sugarbeets plant response rating for various compounds

Consider the reported Sugarbeets plant response rating for these compounds:
> print(dat)
                                   compound                     readout.label  result
1  CC(C)N(C(=O)n1oc(=O)n(CCC2OCCO2)c1=O)c1ccc(Cl)cc1  Sugarbeets plant response rating       4
2  CC(=O)C(C)n1c(=O)on(C(=O)N(c2ccccc2)C(C)C)c1=O (stereo not drawn)  Sugarbeets plant response rating       0
3  CC(Cl)=CCn1c(=O)on(C(=O)N(c2ccccc2)C(C)C)c1=O  Sugarbeets plant response rating       2

Value lookup for Sugarbeets plant response rating; key = `CCOCn1c(=O)on(C(=O)N(c2ccccc2)C(C)C)c1=O`
3

Value lookup for Sugarbeets plant response rating; key = `CCCCCn1c(=O)on(C(=O)N(c2ccc(Cl)cc2)C(C)C)c1=O`
0

Value lookup for Sugarbeets plant response rating; key = `CCOC(=O)C=C(Cn1c(=O)on(C(=O)N(c2ccccc2)C(C)C)c1=O)OCC`
2

====

Overview of recorded Giant foxtail plant response rating for various compounds
Test system: giant foxtail
assay: Test B pre/postemergence giant foxtail
Type: in vivo, Setaria faberii
condition-details: Postemergence, Rate 125 g/ha; scale of 0 to 10 where 0 is no effect and 10 is complete control
Please reply with the value in numeric form only.

Consider the reported Giant foxtail plant response rating for these compounds:
> print(dat)
                                   compound                        readout.label  number
1  C=CCn1c(=O)on(C(=O)N(c2ccccc2)C(C)C)c1=O  Giant foxtail plant response rating       7
2  CCN(CC)C(=O)n1oc(=O)n(-c2cccc3c2CCCC3)c1=O  Giant foxtail plant response rating       0
3  CCOP(=O)(OCC)C(C)n1c(=O)on(C(=O)N(c2ccc(Cl)cc2)C(C)C)c1=O (centres unmarked)  Giant foxtail plant response rating       0
4  C#CC(C)n1c(=O)on(C(=O)N(c2ccc(F)cc2)C(C)C)c1=O (centres unmarked)  Giant foxtail plant response rating       8

Field: next compound
Value lookup for Giant foxtail plant response rating; key = CC1CCCCC1n1c(=O)on(C(=O)N(c2ccc(F)cc2F)C(C)C)c1=O (centres unmarked)
0

====

Test system: cocklebur
assay: Test B pre/postemergence cocklebur
Format: in vivo, Xanthium strumarium
condition-details: Postemergence, Rate 250 g/ha; scale 0 to 10, 0 is no effect, 10 is complete control
Overview of recorded Plant response rating, Cocklebur for various compounds
Please reply with the value in numeric form only.

Consider the reported Plant response rating, Cocklebur for these compounds:
> print(dat)
                                   compound  number
1  CC(C)N(C(=O)n1oc(=O)n(C2CCOCC2)c1=O)c1ccccc1 [Compound 416]       0
2  CC(C)N(C(=O)n1oc(=O)n(C(C)C2CC2)c1=O)c1ccc(F)cc1 (stereo not shown) [Compound 404]       2
3  CC(C)N(C(=O)n1oc(=O)n(C(C)CCl)c1=O)c1ccc(F)cc1F (stereo not shown) [Compound 408]       0

Value lookup for Plant response rating, Cocklebur; key = CC(C)Cn1c(=O)on(C(=O)N(c2ccc(Cl)cc2)C(C)C)c1=O [Compound 417]
0

====

Tested on: rape
assay: Test B pre/postemergence rape
Type: in vivo, Brassica napus
condition-details: Preemergence, Rate 125 g/ha; scale 0 to 10, 0 is no effect, 10 is complete control
Overview of recorded Rape plant response rating for various compounds
Please reply with the value in numeric form only.

Consider the reported Rape plant response rating for these compounds:
> print(dat)
                                smiles.code               readout.label  number
1  CC(Cl)=CCn1c(=O)on(C(=O)N(c2ccccc2)C(C)C)c1=O  Rape plant response rating       2
2  CCOCn1c(=O)on(C(=O)N(c2ccccc2)C(C)C)c1=O  Rape plant response rating       4
3  CC(C)N(C(=O)n1oc(=O)n(CCc2ccccc2)c1=O)c1ccc(F)cc1F  Rape plant response rating       0

Field: next compound
Value lookup for Rape plant response rating; key = `CCOC(=O)C=C(Cn1c(=O)on(C(=O)N(c2ccc(F)cc2F)C(C)C)c1=O)OCC`
0

====

System: purple nutsedge
assay: Test B pre/postemergence purple nutsedge
Format: in vivo, Cyperus rotundus
condition-details: Preemergence, Rate 500 g/ha; scale of 0 to 10 where 0 is no effect and 10 is complete control
readout-label: Plant response rating, Nutsedge
Please reply with the value in numeric form only.

Consider the reported Plant response rating, Nutsedge for these molecules:
> print(dat)
                                smiles.code  number
1  CC(C)N(C(=O)n1oc(=O)n(CC(=O)C2CCC2)c1=O)c1ccccc1       3
2  CCOC(Cn1c(=O)on(C(=O)N(c2ccccc2)C(C)C)c1=O)OCC       0
3  CC(C)N(C(=O)n1oc(=O)n(CC(=O)OC(C)(C)C)c1=O)c1ccc(F)cc1       0
4  Cc1ccccc1-n1c(=O)on(C(=O)N(c2ccc(C(C)(C)C)cc2)C(C)C)c1=O       0

Field: next molecule
Could you share what Plant response rating, Nutsedge was measured for `CC(C)N(C(=O)n1oc(=O)n(C2CC2)c1=O)c1ccc(Cl)cc1` , tested on purple nutsedge?
10
